- Tested on: MS2 coat protein
- METHOD: apparent KD of MS2 coat protein; designed switch direction (-1 OFF switch, 1 ON switch): -1; higher = weaker reporter binding
- CONDITION_SET: input ligand: none
Criterion: apparent KD of MS2 coat protein meeting or surpassing 30 nM. Met: T. Not met: F.

Problem: # check: apparent KD of MS2 coat protein of UAAAUCGCAGGAUAUCCAGAGGAGGACAUGAGGAUCACCCAUGUGGAAAGGAAAGGAGGAGGAGAAGGGCGAUUUA [Paired] (Eterna round: R97, puzzle: Exclusion 5) is greater than or equal to 30 nM
Result: T

Problem: # check: apparent KD of MS2 coat protein of ACACUGCUAGGAUAUGCAGCGGCAUCAGCCGAAAGUCCCUCACAUGAGGAUCACCCAUGUAGAAGGAGCAAGAC [Eternabot (Original) Solution 13] (Eterna round: R97, puzzle: Exclusion 2) is greater than or equal to 30 nM
Result: F

Problem: # check: apparent KD of MS2 coat protein of UGUGUGUGACAGGAUAUGCAGGUAAUGAGACGGGUAGAAGGGUCUACAUGAGGAUCACCCAUGUGGCCGGUUGG [Ex6 #62] (Eterna round: R97, puzzle: Exclusion 6) is greater than or equal to 30 nM
Result: F

Problem: # check: apparent KD of MS2 coat protein of CCUCUAUUUGUGAGGAUAUCGGUAAACUGGAUUGUCGAGAAGGCACAUGAGGAUCACCCAUGUAUUGAACAGCA [JR_BMEx4_Sub021] (Eterna round: R97, puzzle: Brourd's mod of Exclusion 4) is greater than or equal to 30 nM
Result: T

Values were extracted from the supplement of paper PMC9170038.
